test: Displacement of [125I]Ang 2 from pig uterus membrane AT2 receptor after 1.5 hrs by micro-counter; set-up: species or system Sus scrofa
Field 'label' (enum: Yes / No). Set to Yes when Ki is strictly under 60 nM; else No.

Q: Below 60 nM on Ki? Entry CCCCOC(=O)NS(=O)(=O)c1sc(CC(C)C)cc1-c1cccc(CN(C)S(C)(=O)=O)c1
A: No

Q: Below 60 nM on Ki? Entry CCCCOC(=O)NS(=O)(=O)c1sc(CC(C)C)cc1-c1cccc(CN(Cc2ccccc2)C(=O)CCCC)c1
A: Yes

Q: Below 60 nM on Ki? Entry CCCCOC(=O)NS(=O)(=O)c1sc(CC(C)C)cc1-c1cccc(CN(C)C(=O)CCCC)c1
A: Yes

Q: Below 60 nM on Ki? Entry CCCCOC(=O)NS(=O)(=O)c1sc(CC(C)C)cc1-c1cccc(Cn2cccn2)c1
A: No

Q: Below 60 nM on Ki? Entry CCCCOC(=O)NS(=O)(=O)c1sc(CC(C)C)cc1-c1cccc(CN(C)C=O)c1
A: Yes

Q: Below 60 nM on Ki? Entry CCCCOC(=O)NS(=O)(=O)c1sc(CC(C)C)cc1-c1cccc(CCn2ccnc2)c1
A: No

Q: Below 60 nM on Ki? Entry CCCCOC(=O)NS(=O)(=O)c1sc(CC(C)C)cc1-c1cccc(Cn2ccnc2-c2ccsc2)c1
A: Yes

Q: Below 60 nM on Ki? Entry CCCCOC(=O)NS(=O)(=O)c1sc(CC(C)C)cc1-c1cccc(Cn2ccnc2C(C)=O)c1
A: Yes

Q: Below 60 nM on Ki? Entry CCCCOC(=O)NS(=O)(=O)c1sc(CC(C)C)cc1-c1cccc(CN2C(=O)CCC2=O)c1
A: No

Reference source: ChEMBL document CHEMBL2086319
